FYI, the data here is from the NIST ThermoML archive (doi:10.1021/je049777o).

Entries and their measured viscosity follow.
# Test context: 333.15 K; 101.3 kPa; Liquid
Give the number; mPa·s is assumed, so skip it.

Below, each entry is followed by its recorded viscosity result.
> print(dat)
                         molecule  measured.quantity  units  readout.number
1                         CCCCCCC          viscosity  mPa·s          0.2704
2  COC(=O)OC [dimethyl carbonate]          viscosity  mPa·s          0.3893
3                          CCCCCC          viscosity  mPa·s          0.2114

Here is another molecule to look at.
Per the records, this molecule ( Clc1ccccc1 ) has viscosity equal to 0.5069

----------
Entries and their measured mass density follow.
# Test context: 303.15 K; 101.3 kPa; Liquid
± gives the expanded uncertainty stated by the source.
The reply must contain the numeric value and, after it, the unit.

> print(dat)
                         compound  measured.quantity                result
1                         CCCCCCC       mass density   678.61 ± 0.71 kg/m3
2                      Clc1ccccc1       mass density  1095.96 ± 0.39 kg/m3
3  COC(=O)OC [dimethyl carbonate]       mass density  1056.35 ± 0.23 kg/m3

Here is another compound to look at.
Per the records, this compound ( CCCCCC ) has mass density equal to 652.87 ± 0.69 kg/m3

----------
# Test context: 333.15 K; 101.3 kPa; Liquid
Entries and their measured mass density follow.
Give the number; kg/m3 is assumed, so skip it.

> print(dat)
                         compound  measured.quantity  units  readout.number
1                          CCCCCC       mass density  kg/m3          624.39
2                      Clc1ccccc1       mass density  kg/m3         1063.32
3  COC(=O)OC [dimethyl carbonate]       mass density  kg/m3            1016

Here is another compound to look at.
Per the records, this compound ( CCCCCCC ) has mass density equal to 652.26

----------
# Test context: 313.15 K; 101.3 kPa; Liquid
Measured quantity: mass density (kg/m3)
Give the number; kg/m3 is assumed, so skip it.

Per the records, this compound ( COC(=O)OC [dimethyl carbonate] ) has mass density equal to 1043.01

Per the records, this compound ( Clc1ccccc1 ) has mass density equal to 1085.06

Per the records, this compound ( CCCCCCC ) has mass density equal to 669.91

Per the records, this compound ( CCCCCC ) has mass density equal to 643.55

----------
# Test context: 293.15 K; 101.3 kPa; Liquid
Measured quantity: mass density (kg/m3)
Give the number; kg/m3 is assumed, so skip it.

Below, each entry is followed by its recorded mass density result.
> print(dat)
                         compound  readout.number
1               CCCCCCC [heptane]          687.14
2      Clc1ccccc1 [chlorobenzene]         1106.74
3  COC(=O)OC [dimethyl carbonate]         1069.54

Per the records, this compound ( CCCCCC [hexane] ) has mass density equal to 662
